B1: KRT18 (parent)
chain: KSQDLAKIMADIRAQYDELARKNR

variants of: B1; assay: protein stability index of a GFP-peptide fusion (GPS, HEK-293T) (PSI 1-6); higher = more stable; settings: c terminus: a fixed tail appended;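 further: lentivirally expressed fusions sorted by FACS into six bins by GFP to DsRed ratio, PSI derived from sequencing read proportions per bin multiplied by bin number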
A collection of variants and their measured protein stability index
Form rule: numeric answer, no unit written next to it.

These solved cases illustrate the format of a correct answer.
[[record]]
mutation_descriptor = "R24Q"
endpoint_value = 2.95

[[record]]
mutation_descriptor = "Y16K"
endpoint_value = 3.93

[[record]]
mutation_descriptor = "A14Y"
endpoint_value = 3.27


Bench note: what protein stability index did R21Q show?
2.59

FYI, the data here is from the supplement of paper PMC10567573.
